# melting point per record follows

COc1cc(C=C2C(=O)CCc3ccccc32)c([N+](=O)[O-])cc1OC ... 58 to 60 °C
O=C(Nc1nnc(-c2ccc(Cl)cc2)s1)c1c(Cl)cccc1Cl ... > 260 °C
CCCCCCCCS(=O)(=O)Nc1cc(C(=O)Nc2ccccc2)ccc1OC ... 154 to 155 °C

Here is another compound to look at.
Q. # lookup: melting point of CCOC(=O)C1CCN(S(=O)(=O)c2ccc(Br)cc2)CC1
A. 132 to 133 °C

* * *

Below is a list of entries, each paired with its recorded melting point value.

Worked examples follow.
COc1ccc(C2CNC(=O)C2)cc1OS(=O)(=O)C(F)(F)F (stereo not drawn) ... 99 to 101 °C
C=Cc1cnc2c(NC(=O)c3c(Cl)cccc3Cl)cccc2c1CCl ... 184 to 186 °C
CCC(=O)N1CCC[C@H]1C(=O)O ... 98 to 99 °C
CC(C)(C)c1cc(-c2nnc(NC(N)=S)s2)cc(C(C)(C)C)c1O ... > 80 °C
O=c1[nH]c(=Cc2ccc(OCc3ccccc3)cn2)c(=O)[nH]c1=Cc1ccc(Cl)c(Cl)c1 ... 264 to 265 °C
CCCCN(C)CCc1ccc(Nc2ncc3c(n2)-c2ccccc2C(c2ccccc2C(F)(F)F)C3)cc1 (stereo not drawn) ... 80 to 82 °C
CNC(=O)CCSSCCC(=O)NC ... 113 to 115 °C
CCCCNc1c(C(=O)OCC)c(C)nc(NCC)c1[N+](=O)[O-] ... 53 to 55 °C

Q. Reported melting point for COC(=O)c1cn2c(n1)COc1ccc([N+](=O)[O-])cc1-2 : what is it?
A. 270 to 272 °C
